Test: Ratio of IC50 values against H69/P and […] cell lines.
Type: functional
OUTCOME_MEASURE: Ratio

[[record]]
structure_as_smiles = "CN(C)CCNC(=O)c1cc2cc(O)ccc2c2nc3ccccc3nc12"
outcome_measure = "Ratio"
measured = 2.12

[[record]]
structure_as_smiles = "CN(C)CCNC(=O)c1cc2cc(OCc3ccccc3)ccc2c2nc3ccccc3nc12"
outcome_measure = "Ratio"
measured = 1.29

[[record]]
structure_as_smiles = "CN(C)CCNC(=O)c1cc2cc(OCCN3CCOCC3)ccc2c2nc3ccccc3nc12"
outcome_measure = "Ratio"
measured = 1.17

[[record]]
structure_as_smiles = "CN(C)CCNC(=O)c1cc2ccccc2c2nc3ccccc3nc12"
outcome_measure = "Ratio"
measured = 1.26

[[record]]
structure_as_smiles = "CN(C)CCNC(=O)c1cc2cc(OC(=O)Nc3ccccc3)ccc2c2nc3ccccc3nc12"
outcome_measure = "Ratio"
measured = 2.42

[[record]]
structure_as_smiles = "CN(C)CCNC(=O)c1cc2cccc(N)c2c2nc3ccccc3nc12"
outcome_measure = "Ratio"
measured = 1.33

[[record]]
structure_as_smiles = "Cc1cccc2nc3c(nc12)c(C(=O)NCCN(C)C)cc1ccccc13"
outcome_measure = "Ratio"
measured = 0.8

[[record]]
structure_as_smiles = "CN(C)CCNC(=O)c1cccc2ncc(-c3ccc([N+](=O)[O-])cc3)nc12"
outcome_measure = "Ratio"
measured = 1.41

[[record]]
structure_as_smiles = "CN(C)CCNC(=O)c1cc2cc(OCCCO)ccc2c2nc3ccccc3nc12"
outcome_measure = "Ratio"
measured = 3.87

[[record]]
structure_as_smiles = "CN(C)CCNC(=O)c1cccc2ncc(-c3ccccc3)nc12"
outcome_measure = "Ratio"
measured = 0.9

[[record]]
structure_as_smiles = "COCCOc1ccc2c(c1)cc(C(=O)NCCN(C)C)c1nc3ccccc3nc12"
outcome_measure = "Ratio"
measured = 1.23

[[record]]
structure_as_smiles = "CN(C)CCNC(=O)c1cc2cccc([N+](=O)[O-])c2c2nc3ccccc3nc12"
outcome_measure = "Ratio"
measured = 1.3

